Each entry below carries its recorded IC50.
- EXPERIMENTAL SYSTEM: MRGPRX2 (Homo sapiens, UniProt Q96LB1)
- Sequence (Q96LB1 1-330): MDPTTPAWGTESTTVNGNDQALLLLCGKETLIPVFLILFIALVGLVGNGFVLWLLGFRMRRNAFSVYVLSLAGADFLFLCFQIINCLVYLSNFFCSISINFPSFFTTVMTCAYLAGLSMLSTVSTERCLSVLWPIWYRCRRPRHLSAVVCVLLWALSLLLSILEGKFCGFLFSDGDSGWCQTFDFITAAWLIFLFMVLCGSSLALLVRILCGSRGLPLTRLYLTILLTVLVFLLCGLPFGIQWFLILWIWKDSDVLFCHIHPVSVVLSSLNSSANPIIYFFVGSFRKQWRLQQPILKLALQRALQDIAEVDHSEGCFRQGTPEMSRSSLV
- EXPERIMENTAL PROTOCOL: MRGPRX2 FLIPR calcium mobilization assay
- Type: cell-based
- Parameters: host or cells: CHO-K1
- CONDITION PARAMETERS: CHO-K1 cells stably expressing human MRGPRX2; Ca2+ release, agonist Cortistatin-14 at EC80

// worked examples, IC50 included
> print(dat)
                                   compound  observed.measurement
1  NS(=O)(=O)N1CC(CNc2cc(C(F)F)nc3ccc(Cl)cc23)(c2ccc(F)cc2)C1 [Example 5]         0.1 to 100 nM
2  Cc1ccc2nc(C(F)(F)F)cc(NCC3(c4ccc(F)cc4)CN(S(N)(=O)=O)C3)c2c1 [Example 2]         0.1 to 100 nM
3  Cc1cccc2nc(C(F)(F)F)cc(NCC3(c4ccc(F)cn4)CN(C(N)=O)C3)c12 [Example 62]             > 1000 nM
4  NC(=O)N1CC(CNc2cc(C(F)(F)F)nc3cc(C(F)(F)F)ccc23)(c2ccc(F)cn2)C1 [Example 63]        100 to 1000 nM
5  NS(=O)(=O)N1CCC(CNc2cc(C(F)(F)F)nc3ccc(Cl)cc23)(c2ccc(F)cn2)CC1 [Example 100]         0.1 to 100 nM
6  [2H]C([2H])([2H])NC(=O)N1CC(CNc2cc(C(F)(F)F)nc3ccc(Cl)cc23)(n2cc(Cl)cn2)C1 [Example 30]         0.1 to 100 nM

Could you share which IC50 value was measured for NS(=O)(=O)N1CCC(CNc2cc(C(F)(F)F)nc3ccc(F)cc23)(c2ccccc2)CC1 [Example 11] ?
0.1 to 100 nM

Could you share which IC50 value was measured for O=C(NC1CC1)N1CC(CNc2cc(C(F)(F)F)nc3ccc(Cl)cc23)(n2cc(F)cn2)C1 [Example 27] ?
0.1 to 100 nM

----------
Each entry below carries its recorded IC50.
- EXPERIMENTAL SYSTEM: MRGPRX2 (Homo sapiens)
- EXPERIMENTAL PROTOCOL: MRGPRX2 IP1 HTRF assay
- Type: cell-based
- Parameters: host or cells: CHO-K1
- CONDITION PARAMETERS: CHO-K1 cells stably expressing human MRGPRX2; IP1 accumulation, agonist Cortistatin 14 1 μM

Could you share which IC50 value was measured for `O=C(N[C@H]1CC[C@H](O)CC1)N1CC(CNc2cc(C(F)(F)F)nc3ccc(Cl)cc23)(n2cc(F)cn2)C1` ?
0.1 to 100 nM

Could you share which IC50 value was measured for `N#CN=C(N)N1CCC(CNc2cc(C(F)(F)F)nc3ccc(Cl)cc23)(c2ccccc2)CC1` ?
0.1 to 100 nM

Could you share which IC50 value was measured for Fc1ccc(C2(CNc3cc(C(F)(F)F)nc4ccc(Cl)cc34)COCCO2)cc1 (stereo not shown) ?
0.1 to 100 nM

Could you share which IC50 value was measured for `NS(=O)(=O)N1CC(CNc2cc(C(F)(F)F)nc3ccc(Cl)cc23)(c2ccc3ccccc3n2)C1` ?
100 to 1000 nM

Could you share which IC50 value was measured for O=C1CCC(CNc2cc(C(F)(F)F)nc3ccc(Cl)cc23)(c2ccccc2)N1 (stereo not shown) ?
0.1 to 100 nM
